# experiment_summary: Apparent permeability in human Caco-2 cells at 5 uM
# Assay type: ADME, cell-based
Bridge positions count the residues as written; N and C are the ends. Square brackets hold non-standard residues; d marks the D form. Peptide text beside a SMILES is read from it. S5 = C=CCCC[C@](C)(N)C(=O)O
measured_parameter: Papp at 5 µM

Let me know recorded Papp at 5 µM for CC(=O)NCC(=O)N[C@@]1(C)CCC/C=C\CCC[C@@](C)(C(=O)N[C@@H](Cc2ccc(O)cc2)C(=O)N[C@@H](CC(C)C)C(=O)N[C@@]2(C)CCC/C=C\CCC[C@@](C)(C(=O)N[C@@H](Cc3ccc(O)cc3)C(=O)N[C@@H](Cc3c[nH]c4ccccc34)C(N)=O)NC(=O)[C@H](CC(C)C)NC(=O)[C@H](CC(C)C)NC(=O)[C@H](CC(N)=O)NC2=O)NC(=O)[C@H](CC(C)C)NC(=O)[C@H](C)NC(=O)[C@H](CCC(=O)O)NC1=O (Ac-G[S5]EAL[S5]YL[S5]NLL[S5]YW-NH2; staple (Z) 2-6, 9-13) , thanks. < 0.02 ×10⁻⁶ cm/s

###

# experiment_summary: Elimination half life in Sprague-Dawley rat at 1 mg/kg,iv administration measured upto 9 days by LC-MS/MS analysis
# Type: ADME, organism-based
# measurement_parameters: in vivo, time < 9 day, read-out: beta t1/2 (converted)
Bridge positions count the residues as written; N and C are the ends. Square brackets hold non-standard residues; d marks the D form. Peptide text beside a SMILES is read from it. S5 = C=CCCC[C@](C)(N)C(=O)O
measured_parameter: half-life

Let me know recorded half-life for CC(=O)NCC(=O)N[C@@]1(C)CCC/C=C\CCC[C@@](C)(C(=O)N[C@@H](Cc2ccc(O)cc2)C(=O)N[C@@H](CC(C)C)C(=O)N[C@@]2(C)CCC/C=C\CCC[C@@](C)(C(=O)N[C@@H](Cc3ccc(O)cc3)C(=O)N[C@@H](Cc3c[nH]c4ccccc34)C(N)=O)NC(=O)[C@H](CC(C)C)NC(=O)[C@H](CC(C)C)NC(=O)[C@H](CC(N)=O)NC2=O)NC(=O)[C@H](CC(C)C)NC(=O)[C@H](C)NC(=O)[C@H](CCC(=O)O)NC1=O (Ac-G[S5]EAL[S5]YL[S5]NLL[S5]YW-NH2; staple (Z) 2-6, 9-13) , thanks. > 2.92 days

###

# experiment_summary: Volume of distribution at steady state in Sprague-Dawley rat at 1 mg/kg,iv administration measured upto 9 days by LC-MS/MS analysis
# Assay type: ADME, organism-based
# measurement_parameters: in vivo, time < 9 day, read-out: Vdss
measured_parameter: Vd

Let me know recorded Vd for H-GWEALKYLWNLLQYW-OH , thanks. 0.0527 L/kg

###

# target_under_test: chymotrypsin (Homo sapiens, UniProt P17538+P40313+Q6GPI1+Q99895)
# experiment_summary: Proteolytic stability assessed as Chymotrypsin (unknown origin) mediated compound degradation by measuring parent compound remaining incubated for 2 hrs by LC-MS/MS analysis
# Format: ADME, protein assay
# measurement_parameters: read-out: Stability
Bridge positions count the residues as written; N and C are the ends. Square brackets hold non-standard residues; d marks the D form. Peptide text beside a SMILES is read from it. S5 = C=CCCC[C@](C)(N)C(=O)O
measured_parameter: remaining at 2 h

Let me know recorded remaining at 2 h for CC(=O)NCC(=O)N[C@@]1(C)CCC/C=C\CCC[C@@](C)(C(=O)N[C@@H](Cc2ccc(O)cc2)C(=O)N[C@@H](CC(C)C)C(=O)N[C@@]2(C)CCC/C=C\CCC[C@@](C)(C(=O)N[C@@H](Cc3ccc(O)cc3)C(=O)N[C@@H](Cc3c[nH]c4ccccc34)C(N)=O)NC(=O)[C@H](CC(C)C)NC(=O)[C@H](CC(C)C)NC(=O)[C@H](CC(N)=O)NC2=O)NC(=O)[C@H](CC(C)C)NC(=O)[C@H](C)NC(=O)[C@H](CCC(=O)O)NC1=O (Ac-G[S5]EAL[S5]YL[S5]NLL[S5]YW-NH2; staple (Z) 2-6, 9-13) , thanks. > 56.8%

###

# System: Human immunodeficiency virus 1
# experiment_summary: Antiviral activity against HIV-1 IIIB infected in human MT2 cells assessed as inhibition of viral growth pretreated with virus for 30 mins followed by infection with cells incubated for 72 hrs by ELISA
# Assay type: functional, organism-based
# measurement_parameters: Human immunodeficiency virus 1, IIIB
Bridge positions count the residues as written; N and C are the ends. Square brackets hold non-standard residues; d marks the D form. Peptide text beside a SMILES is read from it. S5 = C=CCCC[C@](C)(N)C(=O)O
measured_parameter: pIC50
Lab note: report pIC50 as minus log10 of the concentration in molar units, number only.

As a guide, the following entries are already answered.
Let me know recorded pIC50 for CC(=O)NCC(=O)N[C@@]1(C)CCC/C=C\CCC[C@@](C)(C(=O)N[C@@H](Cc2ccc(O)cc2)C(=O)N[C@@H](CC(C)C)C(=O)N[C@@H](Cc2c[nH]c3ccccc23)C(=O)N[C@@H](CC(N)=O)C(=O)N[C@@H](CC(C)C)C(=O)N[C@@H](CC(C)C)C(=O)N[C@@H](CCC(N)=O)C(=O)N[C@@H](Cc2ccc(O)cc2)C(=O)N[C@@H](Cc2c[nH]c3ccccc23)C(N)=O)NC(=O)[C@H](CC(C)C)NC(=O)[C@H](C)NC(=O)[C@H](CCC(=O)O)NC1=O (Ac-G[S5]EAL[S5]YLWNLLQYW-NH2; staple (Z) 2-6) , thanks. 6.92

Let me know recorded pIC50 for CC(=O)NCC(=O)N[C@@H](Cc1c[nH]c2ccccc12)C(=O)N[C@@H](CCC(=O)O)C(=O)N[C@@]1(C)CCC/C=C\CCC[C@@](C)(C(=O)N[C@@H](Cc2c[nH]c3ccccc23)C(=O)N[C@@H](CC(N)=O)C(=O)N[C@@H](CC(C)C)C(=O)N[C@@H](CC(C)C)C(=O)N[C@@H](CCC(N)=O)C(=O)N[C@@H](Cc2ccc(O)cc2)C(=O)N[C@@H](Cc2c[nH]c3ccccc23)C(N)=O)NC(=O)[C@H](Cc2ccc(O)cc2)NC(=O)[C@H](CCCCN)NC(=O)[C@H](CC(C)C)NC1=O (Ac-GWE[S5]LKY[S5]WNLLQYW-NH2; staple (Z) 4-8) , thanks. 7.35

Let me know recorded pIC50 for CC(=O)N[C@@]1(C)CCC/C=C\CCC[C@@](C)(C(=O)N[C@@H](CCCCN)C(=O)N[C@@H](Cc2ccc(O)cc2)C(=O)N[C@@H](CC(C)C)C(=O)N[C@@H](Cc2c[nH]c3ccccc23)C(=O)N[C@@H](CC(N)=O)C(=O)N[C@@H](CC(C)C)C(=O)N[C@@H](CC(C)C)C(=O)N[C@@H](CCC(N)=O)C(=O)N[C@@H](Cc2ccc(O)cc2)C(=O)N[C@@H](Cc2c[nH]c3ccccc23)C(N)=O)NC(=O)[C@H](C)NC(=O)[C@H](CCC(=O)O)NC(=O)[C@H](Cc2c[nH]c3ccccc23)NC1=O (Ac-[S5]WEA[S5]KYLWNLLQYW-NH2; staple (Z) 1-5) , thanks. 7.47

More entries:
Let me know recorded pIC50 for CC(=O)NCC(=O)N[C@@H](Cc1c[nH]c2ccccc12)C(=O)N[C@@H](CCC(=O)O)C(=O)N[C@@H](C)C(=O)N[C@@H](CC(C)C)C(=O)N[C@@H](CCCCN)C(=O)N[C@@H](Cc1ccc(O)cc1)C(=O)N[C@@]1(C)CCC/C=C\CCC[C@@](C)(C(=O)N[C@@H](CCC(N)=O)C(=O)N[C@@H](Cc2ccc(O)cc2)C(=O)N[C@@H](Cc2c[nH]c3ccccc23)C(N)=O)NC(=O)[C@H](CC(C)C)NC(=O)[C@H](CC(N)=O)NC(=O)[C@H](Cc2c[nH]c3ccccc23)NC1=O (Ac-GWEALKY[S5]WNL[S5]QYW-NH2; staple (Z) 8-12) , thanks. 7.02

###

# System: Human immunodeficiency virus 1
# experiment_summary: Antiviral activity against HIV-1 IIIB infected in human MT2 cells assessed as inhibition of viral growth pretreated with virus for 30 mins followed by infection with cells incubated for 72 hrs by ELISA
# Type: functional, organism-based
# measurement_parameters: Human immunodeficiency virus 1, IIIB
Bridge positions count the residues as written; N and C are the ends. Square brackets hold non-standard residues; d marks the D form. Peptide text beside a SMILES is read from it. S5 = C=CCCC[C@](C)(N)C(=O)O
measured_parameter: IC50 (nM)
Field: numeric (nM). Do not append units.

Let me know recorded IC50 for CC(=O)NCC(=O)N[C@@H](Cc1c[nH]c2ccccc12)C(=O)N[C@@H](CCC(=O)O)C(=O)N[C@@H](C)C(=O)N[C@@H](CC(C)C)C(=O)N[C@@H](CCCCN)C(=O)N[C@@H](Cc1ccc(O)cc1)C(=O)N[C@@H](CC(C)C)C(=O)N[C@@]1(C)CCC/C=C\CCC[C@@](C)(C(=O)N[C@@H](Cc2ccc(O)cc2)C(=O)N[C@@H](Cc2c[nH]c3ccccc23)C(N)=O)NC(=O)[C@H](CC(C)C)NC(=O)[C@H](CC(C)C)NC(=O)[C@H](CC(N)=O)NC1=O (Ac-GWEALKYL[S5]NLL[S5]YW-NH2; staple (Z) 9-13) , thanks. 160

Let me know recorded IC50 for CC(=O)NCC(=O)N[C@@]1(C)CCC/C=C\CCC[C@@](C)(C(=O)N[C@@H](Cc2ccc(O)cc2)C(=O)N[C@@H](CC(C)C)C(=O)N[C@@]2(C)CCC/C=C\CCC[C@@](C)(C(=O)N[C@@H](Cc3ccc(O)cc3)C(=O)N[C@@H](Cc3c[nH]c4ccccc34)C(N)=O)NC(=O)[C@H](CC(C)C)NC(=O)[C@H](CC(C)C)NC(=O)[C@H](CC(N)=O)NC2=O)NC(=O)[C@H](CC(C)C)NC(=O)[C@H](C)NC(=O)[C@H](CCC(=O)O)NC1=O (Ac-G[S5]EAL[S5]YL[S5]NLL[S5]YW-NH2; staple (Z) 2-6, 9-13) , thanks. 23.5
